Listed here are compounds together with their documented normalized growth.
test: chemical genetic growth profiling, strain panel (AID 1159580);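 further: tested at 20 µM; growth read once vehicle control cultures reached saturation at 30 °C; 1 = growth at the plate median or of vehicle wells; lower values mean less growth of the strain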; conditions: S. cerevisiae deletion strains, growth OD, locus YHR129C, strain ARP1, active compounds read low
The whole screen tested about 5,500 compounds, of which about 2,000 (36%) were called active. Inconclusive results (about 18%) are left out. The list shows a part of the results.
# answer = number (no unit)

# count of solved cases: 5
CC(=O)Nc1ccc(O)cc1    0.977
COc1cc([C@@H]2c3cc4c(cc3[C@H](O)[C@H]3COC(=O)[C@@H]23)OCO4)cc(OC)c1OC    1.01
CC(=O)Nc1ccc(OC(=O)c2ccccc2O)cc1    0.948
Nc1ccc(C(=O)O)c(O)c1    1.01
CCCN1C[C@H](CSC)C[C@@H]2c3cccc4[nH]cc(c34)C[C@H]21    1

API: the following record is the query input.
Item under review: `O=C(O)/C=C(\CC(=O)O)C(=O)O` . Reported normalized growth? 1
